Every entry's value here was drawn from paper PMC4457358.

Reported melting point values follow for various compounds

Below: 8 compounds and their reported melting point.
input: Please look at this compound and report its melting point: "C(=N\N1CCN(c2ccccc2)CC1)/c1ccc2c(c1)OCO2"
output: 125 to 129 °C

input: Please look at this compound and report its melting point: "COc1ccc(NC(=O)N2CCN(c3ccccc3)CC2)cc1OC"
output: 122 to 125 °C

input: Please look at this compound and report its melting point: "CN(C)c1ccc(/C=N/N2CCN(c3ccccc3)CC2)cc1"
output: 190 °C (dec.)

input: Please look at this compound and report its melting point: "Oc1cccc(/C=N/N2CCN(c3ccccc3)CC2)c1"
output: 190 °C (dec.)

input: Please look at this compound and report its melting point: "C(=N\N1CCN(c2ccccc2)CC1)/c1ccc2ccccc2n1"
output: 210 to 212 °C

input: Please look at this compound and report its melting point: "COc1cc(/C=N/N2CCN(c3ccccc3)CC2)cc(OC)c1OC"
output: 93 to 98 °C

input: Please look at this compound and report its melting point: "Oc1ccc(/C=N/N2CCN(C3CCCCC3)CC2)c(O)c1"
output: 247 to 249 °C (dec.)

input: Please look at this compound and report its melting point: "Oc1ccc(/C=N/N2CCN(Cc3ccccc3)CC2)c(O)c1"
output: 225 to 228 °C

Next:
input: Please look at this compound and report its melting point: "O=C(Oc1ccc(F)c(F)c1)N1CCN(c2ccccc2)CC1"
output: 94 to 96 °C

input: Please look at this compound and report its melting point: "O=c1[nH]c2ccc(/C=N/N3CCN(c4ccccc4)CC3)cc2[nH]1"
output: 320 to 330 °C (dec.)

----------
Study system: murine ATGL (Mus musculus)
Construct: expressed in transfected cells; host or cells: COS-7 (ATCC CRL-1651), transient transfection with Metafectene; crude lysate after 1000 x g spin
Sequence (Q8BJ56 whole entry): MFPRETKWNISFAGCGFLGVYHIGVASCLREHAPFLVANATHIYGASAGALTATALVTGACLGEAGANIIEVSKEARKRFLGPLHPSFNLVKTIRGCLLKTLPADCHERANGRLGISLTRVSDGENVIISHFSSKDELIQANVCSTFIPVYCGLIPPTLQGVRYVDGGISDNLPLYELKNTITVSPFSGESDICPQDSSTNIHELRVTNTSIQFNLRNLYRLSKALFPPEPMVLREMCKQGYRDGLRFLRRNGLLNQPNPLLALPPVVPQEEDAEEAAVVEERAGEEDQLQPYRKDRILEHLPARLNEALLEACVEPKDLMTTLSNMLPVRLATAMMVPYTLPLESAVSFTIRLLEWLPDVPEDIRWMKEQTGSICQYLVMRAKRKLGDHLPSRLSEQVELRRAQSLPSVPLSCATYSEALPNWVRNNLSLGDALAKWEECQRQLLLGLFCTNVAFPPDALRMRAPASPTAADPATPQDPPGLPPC
Procedure text: Triglyceride hydrolase activity assay with COS7-cell lysate overexpressing recombinant murine ATGL, radiolabelled triolein substrate;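 also: radioactivity from the triolein substrate quantified by liquid scintillation counting after phase separation, reflecting triglyceride hydrolase activity of murine ATGL in lysates of transfected COS-7 cells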
Assay type: biochemical
Condition details: 1 h; ATGL-inhibition efficiency at 200 μM inhibitor; read-out: I200 (%)
Param threshold (30%) applies to inhibition at 200 µM; output Fulfilled when value >= threshold, Not fulfilled when value < threshold.

Recorded results for 6 molecules are shown here.
input: For this molecule, is measured inhibition at 200 µM 30% or higher? "Oc1ccc(/C=N/N2CCC(c3ccccc3)CC2)c(O)c1"
output: Fulfilled

input: For this molecule, is measured inhibition at 200 µM 30% or higher? "COc1cc(OC)c(OC)cc1/C=N/N1CCN(c2ccccc2)CC1"
output: Fulfilled

input: For this molecule, is measured inhibition at 200 µM 30% or higher? "C(=N\N1CCN(c2ccccc2)CC1)/c1ccc2c(c1)OCCO2"
output: Not fulfilled

input: For this molecule, is measured inhibition at 200 µM 30% or higher? "COc1ccc(/C=N/N2CCN(c3ccccc3)CC2)cc1O"
output: Fulfilled

input: For this molecule, is measured inhibition at 200 µM 30% or higher? "CCCC/C=N/N1CCN(c2ccccc2)CC1"
output: Not fulfilled

input: For this molecule, is measured inhibition at 200 µM 30% or higher? "COc1cc(/C=N/N2CCN(c3ccccc3)CC2)cc(OC)c1OC"
output: Fulfilled

Next:
input: For this molecule, is measured inhibition at 200 µM 30% or higher? "Oc1cccc(/C=N/N2CCN(c3ccccc3)CC2)c1"
output: Fulfilled

input: For this molecule, is measured inhibition at 200 µM 30% or higher? "Cc1ccc(/C=N/N2CCN(c3ccccc3)CC2)cc1"
output: Not fulfilled

input: For this molecule, is measured inhibition at 200 µM 30% or higher? "C(=N\N1CCN(c2ccccc2)CC1)/C1CCCCC1"
output: Fulfilled

input: For this molecule, is measured inhibition at 200 µM 30% or higher? "O=[N+]([O-])c1ccccc1/C=N/N1CCN(c2ccccc2)CC1"
output: Fulfilled

input: For this molecule, is measured inhibition at 200 µM 30% or higher? "COc1cc(/C=N/N2CCN(c3ccccc3)CC2)ccc1O"
output: Fulfilled
